Where do these numbers come from? They come from BindingDB's records for doi:10.7270/Q2HM57BR.

biological target: UDP-3-O-acyl-N-acetylglucosamine deacetylase (Pseudomonas aeruginosa (strain ATCC 15692 / DSM 22644 / CIP 104116 / JCM 14847 / LMG 12228 / 1C / PRS 101 / PAO1), UniProt P47205); test: Thermofluor_Method1
Sequence (P47205 whole entry): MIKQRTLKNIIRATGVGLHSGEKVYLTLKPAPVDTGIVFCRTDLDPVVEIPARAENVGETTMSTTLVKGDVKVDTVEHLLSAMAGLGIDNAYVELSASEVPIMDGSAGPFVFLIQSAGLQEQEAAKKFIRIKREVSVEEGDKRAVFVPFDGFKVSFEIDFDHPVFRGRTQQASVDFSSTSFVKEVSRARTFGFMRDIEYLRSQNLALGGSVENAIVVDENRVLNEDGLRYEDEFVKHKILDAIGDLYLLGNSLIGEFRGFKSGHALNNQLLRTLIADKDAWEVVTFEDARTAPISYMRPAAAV
pKd: −log10 of the molar value.
METRIC NAME: pKd

Worked cases, answers included:
{"COMPOUND": "C[C@@H](O)[C@H](NC(=O)c1ccc(C#CC#Cc2ccccc2)cc1)C(=O)NCC1(C)NC(=O)NC1=O (stereo partly drawn)", "MEASUREMENT": "< 4.00"}
{"COMPOUND": "CC1(CNC(=O)c2ccc(-c3ccccc3)cc2)NC(=O)NC1=O (stereo not drawn)", "MEASUREMENT": "< 4.00"}

Field pKd (entry CC1(CNC(=O)[C@H](CN)NC(=O)c2ccc(-c3ccc(Br)cc3)cc2)NC(=O)NC1=O (stereo partly drawn) ) reads < 4.00
